- protocol-text: Intracellular accumulation and total recovery (mass balance) at the end of transport
- Assay type: in vitro ADME, human
- condition-summary: human, Caco-2, end of transport, n = 3; read-out: Total recovery AP→BL
endpoint-label: recovery (%)

smiles-code: CC1(C)[C@@H](O)CC[C@]2(C)[C@H]3C(=O)C=C4[C@@H]5C[C@@](C)(C(=O)O)CC[C@]5(C)CC[C@@]4(C)[C@]3(C)CC[C@@H]12
recovery [%]: 85.1
--
smiles-code: COc1c(/C=C/C(=O)c2ccc(O)cc2)ccc(O)c1CC=C(C)C
recovery [%]: 97.5
--
smiles-code: C=CC(C)(C)c1cc(/C=C/C(=O)c2ccc(O)cc2)c(OC)cc1O
recovery [%]: 81.9
--
smiles-code: O=C1C[C@@H](c2ccc(O)cc2)Oc2cc(O)ccc21
recovery [%]: 87
